Numbers sourced from ChEMBL document CHEMBL3886330.

target: Glucagon-like peptide 1 receptor (Homo sapiens, UniProt P43220)
Sequence (P43220 whole entry): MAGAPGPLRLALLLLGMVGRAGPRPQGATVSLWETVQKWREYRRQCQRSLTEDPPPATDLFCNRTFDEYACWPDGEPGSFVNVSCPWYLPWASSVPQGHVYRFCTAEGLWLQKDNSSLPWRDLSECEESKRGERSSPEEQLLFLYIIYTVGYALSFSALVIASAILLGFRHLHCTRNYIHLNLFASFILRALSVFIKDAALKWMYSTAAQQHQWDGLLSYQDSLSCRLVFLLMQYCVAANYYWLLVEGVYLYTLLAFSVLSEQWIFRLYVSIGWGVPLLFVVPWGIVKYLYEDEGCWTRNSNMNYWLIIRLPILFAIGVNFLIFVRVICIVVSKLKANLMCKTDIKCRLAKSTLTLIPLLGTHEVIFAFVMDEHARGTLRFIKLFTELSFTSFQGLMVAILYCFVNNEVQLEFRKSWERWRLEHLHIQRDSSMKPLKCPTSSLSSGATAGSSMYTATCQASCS
VALUE_TYPE: EC50 (nM)
Report the value in nM with no unit label.

Worked examples follow.
Cc1nccc(-c2ccc(C[C@H](NC(=O)[C@@H]3Cc4cc5c(cc4CN3C(=O)N(C(C)C)C(C)C)O[C@@H](c3ccc(OCc4ccc(Cl)c(Cl)c4)cc3)CO5)C(=O)O)cc2)c1C ... 73
CC[C@@H](NC(=O)N1Cc2cc3c(cc2C[C@H]1C(=O)N[C@@H](Cc1ccc(-c2ccnc(C)c2C)cc1)C(=O)O)OC[C@H](c1ccc(OCc2ccc(Cl)c(Cl)c2)cc1)O3)c1ccccc1 ... 126

Turning to the following compound.
Reported EC50 (Glucagon-like peptide 1 receptor (Homo sapiens, UniProt P43220)) for entry Cc1ccc(COc2ccc(C3COc4cc5c(cc4O3)CN(S(=O)(=O)c3sc(N)nc3C)[C@H](C(=O)N[C@@H](Cc3ccc(-c4ccc(C#N)cc4)cc3)C(=O)O)C5)cc2)cc1Cl (stereo partly drawn) is 434
